# target-or-test-system: His-LAMA4 as used in Example 6 (species not stated) (Homo sapiens (Human)) (UniProt Q16363)
# experimental-details: ForteBio BLI, LAMA-His on anti-His sensor, antibody 33.3 nM
attribute-measured: Response
Answer as a number with no unit attached.

These recorded examples may help you get a feel for the data.
humanized 19C12 antibody H2L3 (antibody, V domains shown) VH: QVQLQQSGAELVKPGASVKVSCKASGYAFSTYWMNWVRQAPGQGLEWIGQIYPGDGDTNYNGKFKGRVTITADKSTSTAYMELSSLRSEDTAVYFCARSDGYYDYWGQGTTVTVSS VL: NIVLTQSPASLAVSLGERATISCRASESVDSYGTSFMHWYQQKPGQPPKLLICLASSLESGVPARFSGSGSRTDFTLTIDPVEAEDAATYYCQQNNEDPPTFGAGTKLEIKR : 1.54
humanized 19C12 antibody H2L4 (antibody, V domains shown) VH: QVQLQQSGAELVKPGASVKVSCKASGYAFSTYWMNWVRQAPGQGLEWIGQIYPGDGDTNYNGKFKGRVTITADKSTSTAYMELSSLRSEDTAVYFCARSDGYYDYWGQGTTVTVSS VL: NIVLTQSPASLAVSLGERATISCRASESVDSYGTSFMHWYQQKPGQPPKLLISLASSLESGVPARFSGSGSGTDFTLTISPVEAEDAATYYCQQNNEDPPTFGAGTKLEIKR : 1.25
chimeric 19C12 antibody (antibody, V domains shown) VH: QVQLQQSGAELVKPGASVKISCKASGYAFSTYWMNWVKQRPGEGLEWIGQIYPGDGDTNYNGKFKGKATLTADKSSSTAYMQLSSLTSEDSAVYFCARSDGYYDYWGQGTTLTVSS VL: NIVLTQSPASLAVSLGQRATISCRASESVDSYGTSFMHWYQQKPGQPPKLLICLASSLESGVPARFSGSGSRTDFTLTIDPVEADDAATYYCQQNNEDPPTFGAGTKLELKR : 1.38

Lab note: next binder to report on.
Could you share which Response value was measured for humanized 19C12 antibody H3L6 (antibody, V domains shown) VH: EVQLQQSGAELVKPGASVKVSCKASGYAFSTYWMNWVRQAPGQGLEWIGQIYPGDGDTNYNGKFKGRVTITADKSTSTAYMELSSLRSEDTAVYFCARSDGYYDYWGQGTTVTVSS VL: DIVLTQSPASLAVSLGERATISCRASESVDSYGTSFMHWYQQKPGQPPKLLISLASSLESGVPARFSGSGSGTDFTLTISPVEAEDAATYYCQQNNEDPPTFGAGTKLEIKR ? 1.38
